system: Genomic double stranded DNA (salmon); assay: Fluorescence intercalator displacement (FID) assay, SYBR-safe probe; details: 20 μM compound, 30° C., lower % = stronger binding
QUANTITY MEASURED: % Normalised Fluorescence with gDNA
Could you write the number and then its unit?

Use the examples below as a reference point.
Cn1cc(NC(=O)c2ccc(/C=C/c3cnc4ccccc4c3)cc2)cc1C(=O)Nc1c[nH]c(C(=O)NCCC(=N)N)c1 | 17%
[H]/N=C(\CCNC(=O)c1cc(NC(=O)c2cc(NC(=O)c3ccc(C=Cc4ccc5nonc5c4)cc3)cn2C)cn1C)NCCC1CCOCC1 | 9%
O=C(Nc1c[nH]c(C(=O)Nc2c[nH]c(C(=O)NCCN3CCOCC3)c2)c1)c1ccc(/C=C/c2cnc3ccccc3c2)cc1 | 49%
CC/N=C(\N)CCNC(=O)c1cc(NC(=O)c2cc(NC(=O)c3ccc(/C=C/c4cnc5ccccc5c4)cc3)cn2C)cn1C | 2%
[H]/N=C(\CCNC(=O)c1cc(NC(=O)c2cc(NC(=O)c3ccc(C=Cc4ccc5nonc5c4)cc3)cn2C)cn1C)N1CCOCC1 | 11%
CNC(=O)c1cc(NC(=O)c2cc(NC(=O)c3ccc(/C=C/c4ccc(N(C)C)cc4)nc3)cn2C)cn1C | 80%
CC/N=C(/CCNC(=O)c1cc(NC(=O)c2cc(NC(=O)c3ccc(/C=C/c4ccc5nonc5c4)cc3)cn2C)cn1C)NCC | 28%
Cn1cc(NC(=O)c2cc(NC(=O)c3ccc(/C=C/c4cnc5ccccc5c4)cc3)cn2C)cc1C(=O)NCCC(=N)N1CCSCC1 | 22%
CCNC(=N)CCNC(=O)c1cc(NC(=O)c2cc(NC(=O)c3ccc(/C=C/c4ccc(OC)cc4)nc3)cn2C)cn1C | 1%
C/N=C(\CCNC(=O)c1cc(NC(=O)c2cc(NC(=O)c3ccc(/C=C/c4ccc(N(C)C)cc4)nc3)cn2C)cn1C)NC | 4%

## Input Report % Normalised Fluorescence with gDNA, nothing else, for this compound: CN1CCN(C(=N)CCNC(=O)c2cc(NC(=O)c3cc(NC(=O)c4ccc(/C=C/c5cnc6ccccc6c5)cc4)cn3C)cn2C)CC1
## Output 13%

## Input Report % Normalised Fluorescence with gDNA, nothing else, for this compound: CN(C)c1ccc(/C=C/c2ccc(C(=O)Nc3cc(C(=O)Nc4c[nH]c(C(=O)NCCC(=N)N)c4)n(C)c3)cn2)cc1
## Output 13%

## Input Report % Normalised Fluorescence with gDNA, nothing else, for this compound: Cn1cc(NC(=O)c2cc(NC(=O)c3ccc(/C=C/c4cnc5ccccc5c4)cc3)cn2C)cc1C(N)=O
## Output 41%

## Input Report % Normalised Fluorescence with gDNA, nothing else, for this compound: [H]/N=C(\CCNC(=O)c1cc(NC(=O)c2cc(NC(=O)c3ccc(C=Cc4ccc5nonc5c4)cc3)cn2C)cn1C)N1CCN(C)CC1
## Output 20%

====

test system: Enterococcus faecalis (ATCC 51299); test: Antibacterial MIC, broth microdilution (CLSI); format: cell-based; conditions: SI, IC50 (μM)/MIC80 (μM); HEK293 cytotoxicity; Alkyl Amidines and NH Pyrroles
QUANTITY MEASURED: E. faecalis Selectivity Indices, Group

Cn1cc(NC(=O)c2cc(NC(=O)c3ccc(/C=C/c4cnc5ccccc5c4)cc3)cn2C)cc1C(=O)NCCN1CCOCC1 [Ref-3, reference compound] | A (Group A: SI < 3)
Cn1cc(NC(=O)c2cc(NC(=O)c3ccc(/C=C/c4ccc(C(F)(F)F)cc4)cc3)cn2C)cc1C(=O)NCCC(=N)N [Ref-6, reference compound] | A (Group A: SI < 3)
CC/N=C(\N)CCNC(=O)c1cc(NC(=O)c2cc(NC(=O)c3ccc(/C=C/c4ccc5nonc5c4)cc3)cn2C)cn1C | D (D: SI > 10)
COc1ccc(/C=C/c2ccc(C(=O)Nc3cc(C(=O)Nc4cc(C(=O)NCCN5CCOCC5)n(C)c4)n(C)c3)cn2)cc1 [Ref-2, reference compound] | A (Group A: SI < 3)

Then there is this molecule:
## Input Report E. faecalis Selectivity Indices, Group, nothing else, for this molecule: CC/N=C(\N)CCNC(=O)c1cc(NC(=O)c2cc(NC(=O)c3ccc(/C=C/c4cnc5ccccc5c4)cc3)cn2C)cn1C
## Output D (D: SI > 10)
